Biological target: T1, RBFOX1 RRM RbFoxmut (Fox-RRM*) (Homo sapiens, UniProt Q9NWB1 109-208, R118D;E147R;N151S;E152T)
T1 sequence: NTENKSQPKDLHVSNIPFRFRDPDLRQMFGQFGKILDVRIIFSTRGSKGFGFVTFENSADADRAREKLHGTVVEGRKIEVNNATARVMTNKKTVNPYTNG
Experiment: EMSA; HiTS-Eq, 1 nM pool, 10 min; buffer printed only for the single-RNA assays: 10 mM Tris pH 7.5, 150 mM NaCl, 3.4 mM EDTA, 0.001% NP-40, 30 C
Details: tags: His6 N-terminal (pET28a); label: 5' 32P
In all, about 16,000 sequences were measured (“ka relative to ugcaugu”: median about 0.096, highest 2% from about 0.35 on). This is one part of a sample in which the highest values are shown more often than they occur.

| binder | binding signal |
| --- | --- |
| AGGGAUG (DNA:RNA) RNA: GGGAGACCGGAAUUCAGAUUGUCCAGGGAUGUUAAAUCCCGUCGUAGCCACCA DNA 1: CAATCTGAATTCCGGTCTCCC DNA 2: TGGTGGCTACGACGGGATT | 0.476 KA relative to UGCAUGU |
| AGGAAUC (DNA:RNA) RNA: GGGAGACCGGAAUUCAGAUUGUCCAGGAAUCUUAAAUCCCGUCGUAGCCACCA DNA 1: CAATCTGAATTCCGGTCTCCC DNA 2: TGGTGGCTACGACGGGATT | 0.261 KA relative to UGCAUGU |
| AGGAGGA (DNA:RNA) RNA: GGGAGACCGGAAUUCAGAUUGUCCAGGAGGAUUAAAUCCCGUCGUAGCCACCA DNA 1: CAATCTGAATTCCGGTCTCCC DNA 2: TGGTGGCTACGACGGGATT | 0.084 KA relative to UGCAUGU |
| ACAACGA (DNA:RNA) RNA: GGGAGACCGGAAUUCAGAUUGUCCACAACGAUUAAAUCCCGUCGUAGCCACCA DNA 1: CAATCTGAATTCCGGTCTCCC DNA 2: TGGTGGCTACGACGGGATT | 0.0863 KA relative to UGCAUGU |

FYI, the data here is from paper PMC9911399.
